# method summary: Metabolic stability in mouse liver microsomes
# setup conditions: mouse liver microsomes; 60 min with NADPH
Please go through the items and note down their Remaining (T = 60 min).
One number for each entry, in %.

Solved entries (count: 4):
1. Cn1cc(-c2cc(Cl)c(Cl)c3sc4c(c23)CN(C(=O)CO)CC4)cn1 = 88.1
2. Cn1cc(-c2cc(Cl)c(Cl)c3sc4c(c23)CCN(C(=O)CN)C4)cn1 = 84.8
3. Cn1cc(-c2cc(Cl)c(Cl)c3c2c2c(n3C)CCN(C(=O)CN)C2)cn1 = 80.1
4. C[C@]12CC[C@H]3[C@@H](CCC4=CC(=O)CC[C@@]43C)[C@@H]1CC[C@@H]2O [Testosterone, reference compound] = 0.0

[Q] Remaining (T = 60 min) lookup needed for Cn1cc(-c2cc(Cl)c(Cl)c3sc4c(c23)CN(C(=O)CN)CC4)cn1 , thanks.
[A] 82.0
